- target.desc: human GLP-1 receptor (human, UniProt P43220 24-463)
- test.description: cell-based or functional assay
Bridges are numbered along the chain shown (N, C = ends). Where no end group is shown, it is not given here. [ ]: non-standard residue; d: D form. The star is where a group is joined. Acetyl(2-(4-imidazolyl)) = O=C(Cc1c[nH]cn1)*; Aib = CC(C)(N)C(=O)O
Flag rule - In vitro activity relative to native peptide (%) vs. GLP-1 less than 40% flags satisfied; the remaining entries get not satisfied.

# example entries with known answers
binder	group
{Acetyl(2-(4-imidazolyl))}-[Aib]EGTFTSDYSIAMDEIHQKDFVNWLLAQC (bridge 15-19) [triple agonist of SEQ ID NO: 83]	not satisfied
[Acetyl(2-(4-imidazolyl))]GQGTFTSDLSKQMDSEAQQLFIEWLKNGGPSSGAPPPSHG [triple agonist of SEQ ID NO: 16]	satisfied
{Acetyl(2-(4-imidazolyl))}-[Aib]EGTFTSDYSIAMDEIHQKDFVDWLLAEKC (bridge 15-19) [triple agonist of SEQ ID NO: 91]	satisfied
Y[Aib]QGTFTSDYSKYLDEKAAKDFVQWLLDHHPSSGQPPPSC (bridge 16-20) [triple agonist of SEQ ID NO: 77]	satisfied

*Q* Threshold test, In vitro activity relative to native peptide (%) vs. GLP-1 < 40%: H[Aib]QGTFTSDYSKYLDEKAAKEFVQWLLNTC (bridge 16-20) [triple agonist of SEQ ID NO: 29]
*A* satisfied
